Biological target: full-length recombinant rat vitamin D receptor (Rattus norvegicus, UniProt P13053)
Construct: Full-length recombinant rat receptor was expressed in E. coli BL21 (DE3) Codon Plus RIL cells; histidine tag (C)
Sequence (P13053 whole entry): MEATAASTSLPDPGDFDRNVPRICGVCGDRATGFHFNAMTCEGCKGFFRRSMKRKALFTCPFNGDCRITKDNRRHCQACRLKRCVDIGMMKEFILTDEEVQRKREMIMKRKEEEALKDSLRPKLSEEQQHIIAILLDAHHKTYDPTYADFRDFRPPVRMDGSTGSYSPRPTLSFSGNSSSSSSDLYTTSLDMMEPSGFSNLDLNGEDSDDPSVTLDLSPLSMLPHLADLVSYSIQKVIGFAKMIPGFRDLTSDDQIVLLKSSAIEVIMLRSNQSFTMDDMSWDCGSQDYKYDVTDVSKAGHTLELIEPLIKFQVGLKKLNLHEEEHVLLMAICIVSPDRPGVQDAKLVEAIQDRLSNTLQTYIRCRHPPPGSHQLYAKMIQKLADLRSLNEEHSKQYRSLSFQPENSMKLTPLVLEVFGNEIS
Assay: Vitamin D receptor competitive binding with [3H]-1,25(OH)2D3
Details: full-length recombinant rat VDR; FIG. 1; read-out: Ki, competition with [3H]-1,25(OH)2D3 for binding to the vitamin D receptor
valueKind: pKi
Keep in mind that pKi stands for -log10 of concentration in molar terms.

*Q* Form field: reported pKi of C[C@H](CCCC(C)(C)O)[C@H]1CC[C@H]2/C(=C/C=C3/C[C@@H](O)C4=CCCO[C@@H]4C3)CCC[C@]12C
*A* 7.52
